- measured_target: TASK-1 pS392 C-terminal fluorescent peptide (human) (UniProt O14649)
- assay_method_text: fluorescence polarisation; 10 nM fluorescein-labelled peptide titrated with 14-3-3 protein (1 nM to 120 µM in the results, 100 µM to 1 nM in the methods); 20 mM MOPS, 150 mM NaCl, 0.005% (v/v) CHAPS pH 7.0; room temperature; monophasic fit
Non-standard residues stand in square brackets, D forms with d. No end group written: not given here. pS = N[C@@H](COP(=O)(O)O)C(=O)O
Kindly supply the reported pKd values for the records listed here.
Answers are plain numbers, as −log10 of the molar value.

Below, 3 binders whose answers are already recorded.
INSERT INTO results (binder, value_type, assay_value) VALUES
  ('14-3-3β (natural protein, human, UniProt P31946 1-246, looked up, 14-3-3 protein beta, human; open reading frame inserted into pMAL2Cx; also called 14-3-3 beta) MTMDKSELVQKAKLAEQAERYDDMAAAMKAVTEQGHELSNEERNLLSVAYKNVVGARRSSWRVISSIEQKTERNEKKQQMGKEYREKIEAELQDICNDVLELLDKYLIPNATQPESKVFYLKMKGDYFRYLSEVASGDNKQTTVSNSQQAYQEAFEISKKEMQPTHPIRLGLALNFSVFYYEILNSPEKACSLAKTAFDEAIAELDTLNEESYKDSTLIMQLLRDNLTLWTSENQGDEGDAGEGEN', 'pKd', 4.00),
  ('14-3-3τ (natural protein) MEKTELIQKAKLAEQAERYDDMATCMKAVTEQGAELSNEERNLLSVAYKNVVGGRRSAWRVISSIEQKTDTSDKKLQLIKDYREKVESELRSICTTVLELLDKYLIANATNPESKVFYLKMKGDYFRYLAEVACGDDRKQTIDNSQGAYQEAFDISKKEMQPTHPIRLGLALNFSVFYYEILNNPELACTLAKTAFDEAIAELDTLNEDSYKDSTLIMQLLRDNLTLWTSDSAGEECDAAEGAEN', 'pKd', 4.00),
  ('14-3-3ε (natural protein, human, UniProt P62258 1-255, looked up, 14-3-3 protein epsilon, human; open reading frame inserted into pMAL2Cx; also called 14-3-3 epsilon) MDDREDLVYQAKLAEQAERYDEMVESMKKVAGMDVELTVEERNLLSVAYKNVIGARRASWRIISSIEQKEENKGGEDKLKMIREYRQMVETELKLICCDILDVLDKHLIPAANTGESKVFYYKMKGDYHRYLAEFATGNDRKEAAENSLVAYKAASDIAMTELPPTHPIRLGLALNFSVFYYEILNSPDRACRLAKAAFDDAIAELDTLSEESYKDSTLIMQLLRDNLTLWTSDMQGDGEEQNKEALQDVEDENQ', 'pKd', 4.00);

Okay, now this binder:
Tell me measured pKd for 14-3-3ζ (natural protein) MDKNELVQKAKLAEQAERYDDMAACMKSVTEQGAELSNEERNLLSVAYKNVVGARRSSWRVVSSIEQKTEGAEKKQQMAREYREKIETELRDICNDVLSLLEKFLIPNASQAESKVFYLKMKGDYYRYLAEVAAGDDKKGIVDQSQQAYQEAFEISKKEMQPTHPIRLGLALNFSVFYYEILNSPEKACSLAKTAFDEAIAELDTLSEESYKDSTLIMQLLRDNLTLWTSDTQGDEAEAGEGGEN please.
4.00
